Value source: the Deep4Chem optical property database

# experiment_description: solvent given as SMILES
# condition_parameters: in ClC(Cl)Cl
assay_metric: absorption maximum (nm)

Answered cases to consult:
CN(C)CCN(Cc1c2ccccc2cc2ccccc12)c1ccc([N+](=O)[O-])cc1[N+](=O)[O-]; 393
CCOc1ccc2c(-c3nc(-c4ccccc4F)no3)cc(=O)oc2c1; 393
CC(C)(C)c1ccc(C2=c3sc(-c4ccc(C(C)(C)C)cc4)cc3=[N+]3C2=Nc2c(-c4ccc(C(C)(C)C)cc4)c4sc(-c5ccc(C(C)(C)C)cc5)cc4n2[B-]3(F)F)cc1; 767
CC(C)(C)c1cc2ccc3cc(C(C)(C)C)cc4c3c2c(c1)c(=O)n1c4nc2c3ccccc3c3ccccc3c21; 368
COc1ccc2c(c1)CCC1=C(c3ccccc3)C3=Nc4c(-c5ccccc5)c5c(n4[B-](F)(F)[N+]3=C12)-c1ccc(OC)cc1CC5; 740
Cc1cc(C)c(C2=C3C=CC=[N+]3[B-]3(c4ccc5ccc6cccc7ccc4c5c67)Oc4cc(O)cc5c6ccc(C)cc6c6cc2n3c6c45)c(C)c1 (centres undefined); 647
CCCCCCCCn1c(=O)c2cc3cc4cc5c(=O)n(CCCCCCCC)c(=O)c5cc4cc3cc2c1=O; 421
N#CCc1ccccc1-c1cc2ccccc2oc1=O; 318

I. CCCCc1cc(-c2cccc(COC)c2)oc1-c1cccc(-c2cc(CCCC)c(-c3cccc(-c4cc(CCCC)c(-c5cccc(-c6oc(-c7cccc(-c8oc(-c9cccc(-c%10oc(-c%11cccc(COC)c%11)cc%10CCCC)c9)cc8CCCC)c7)cc6CCCC)c5)o4)c3)o2)c1
II. F[B-]1(F)n2c(ccc2-c2nc3ccccc3s2)C(c2ccccc2)=C2C=CC(c3nc4ccccc4s3)=[N+]21
Please compare: I and II . Report which one has the smaller absorption maximum value. I would appreciate it if you answered with the label of your choice.
I

P. CC(=O)C1=C(O)CC2Oc3c(C(C)=O)c(O)c(C)c(O)c3C2(C)C1=O (centres undefined)
Q. CC[N+](CC)=c1ccc2c(-c3ccccc3C(=O)O)c3cc4c(-c5ccccc5C(=O)O)c5ccc(=[N+](CC)CC)cc-5oc4cc3oc-2c1
Which numeric absorption maximum is bigger, that of P or that of Q ? I would appreciate it if you answered with the label of your choice.
Q
(Q: 598 nm, P: 340 nm)

P. CCCCCCN1C(=O)c2cccc3c(-c4cc5ccccc5s4)ccc(c23)C1=O
Q. CN1C(=CC2=C([O-])C(=Cc3oc4ccccc4[n+]3C)C2=O)C(C)(C)c2ccccc21
Which numeric absorption maximum is bigger, that of P or that of Q ? I would appreciate it if you answered with the label of your choice.
Q
(Q: 608 nm, P: 378 nm)

====

# experiment_description: solvent given as SMILES
# condition_parameters: in CCO
assay_metric: absorption maximum (nm)

CC1(C)CC(/C=C/c2ccc(-n3cccn3)cc2)=CC(=C(C#N)C#N)C1; 404
CN1c2ccccc2C(O)(c2ccccc2)c2cc([N+](=O)[O-])ccc21 (centres undefined); 393.7
Clc1ncc(-c2c3ccccc3c(-c3cnc(Cl)nc3)c3ccccc23)cn1; 394
N#C/C(=N/Nc1ccc(C#N)cc1)c1nc(-c2ccccc2)cs1; 398

====

Each item that follows carries a reported absorption maximum.
# experiment_description: solvent given as SMILES
# condition_parameters: in CS(C)=O
Please respond with the number in nm and leave the unit unwritten.

Answered cases to consult:
CCCCCn1c2ccc(S(=O)(=O)O)cc2c(=O)c2cc(S(=O)(=O)O)ccc21; 406
COc1ccc2oc(-c3cc4cc(OC)ccc4oc3=O)cc2c1; 389
CCCCCCCCN1c2ccc(C#Cc3ccc(C(F)(F)F)cc3)cc2Sc2cc(C=O)ccc21; 389.99

What does the data say about its absorption maximum? Entry: "CC(C)(C)c1cc2ccc3cccc4c3c2c(c1)c1nc2c3cc(C(C)(C)C)cc5ccc6cccc(c(=O)n2c41)c6c53"
391

====

# experiment_description: solvent given as SMILES
# condition_parameters: in CC#N
assay_metric: absorption maximum (nm)
Please respond with the number in nm and leave the unit unwritten.

Answered cases to consult:
CCC1=C(C)C2=C(c3cc(C(=O)Cl)cc(C(=O)Cl)c3)c3c(C)c(CC)c(C)n3[B-](F)(F)[N+]2=C1C; 524
c1cc2c3c(cccc3c1)NC(c1ccc3ccc4cccc5ccc1c3c45)N2; 341
Cc1cc(C)c2nc3c(=O)[nH]c(=O)[nH]c3nc2c1; 350

What does the data say about its absorption maximum? Entry: "F[B-]1(F)OC(c2ccccc2)=Cc2cc(Cl)nc[n+]21"
371

====

# experiment_description: solvent given as SMILES
# condition_parameters: in C1CCOC1
assay_metric: absorption maximum (nm)

CC1=N/C(=C\c2ccccc2N(C)C)C(=O)N1C; 395
COc1cc2c(cc1-c1ccncc1)Cc1c3c(c4c(c1-2)-c1cc(OC)c(-c2ccncc2)cc1C4)C(=O)N(CCC(C)C)C3=O; 407
CN1c2ccccc2C(O)(c2ccccc2)c2cc([N+](=O)[O-])ccc21 (centres undefined); 392.4
O=P1(c2ccccc2)C(c2ccc(N(c3ccccc3)c3ccccc3)cc2)=Cc2ccccc21 (centres undefined); 408

====

# experiment_description: solvent given as SMILES
# condition_parameters: in CC(C)=O
assay_metric: absorption maximum (nm)
Please respond with the number in nm and leave the unit unwritten.

Answered cases to consult:
O=P1(c2ccccc2)C(c2cc(C(F)(F)F)cc(C(F)(F)F)c2)=Cc2c3ccc4cccc5ccc(c6cc(-c7ccc(N(c8ccccc8)c8ccccc8)cc7)n1c26)c3c45 (stereo not given); 435
Cc1ccc(C(=O)NN2C3=C(CC4=C2CCCC4=O)C(=O)CCC3)cc1; 366
CCN(CC)c1ccc([N+]2=Cc3ccc4c5c(ccc4c3O[B-]2(c2ccccc2)c2ccccc2)C=[N+](c2ccc([N+](=O)[O-])cc2)[B-](c2ccccc2)(c2ccccc2)O5)cc1; 541
CC(C)(C)c1cc2ccc3cccc4c3c2c(c1)c1nc2c3cc(C(C)(C)C)cc5ccc6cccc(c(=O)n2c41)c6c53; 391
CCC1=C(C)C(=O)n2c1cc1c(C)c(CCC(=O)OC)c(C)n1c2=O; 420

What does the data say about its absorption maximum? Entry: "O=c1[nH]c2ccccc2[nH]1"
285

What does the data say about its absorption maximum? Entry: "CCN(CC)c1ccc2cc(/C=C/C(O)=C/C(C)=O)c(=O)oc2c1"
456

====

# experiment_description: solvent given as SMILES
# condition_parameters: in ClCCl
assay_metric: absorption maximum (nm)

N#CC(C#N)=Cc1ccc2c(c1)c1ccccc1n2-c1cccc2ccccc12; 404
CCc1c(C)c2n(c1C)[B-](F)(F)[N+]1=C(c3ccc[nH]3)c3ccccc3C1=C2C; 605
CC(=O)Nc1ccccc1C(=O)OC1CC(C)CCC1C(C)C (configuration not stated); 310
COC(=O)c1ccc2ccc3cccc4ccc1c2c34; 379
O=P1(c2ccccc2)C(c2ccc(N(c3ccccc3)c3ccccc3)cc2)=Cc2ccccc21 (configuration not stated); 415
c1ccc(N2N=C(c3ccc4ccc5cccc6ccc3c4c56)CC2c2ccc3ccc4cccc5ccc2c3c45)cc1 (configuration not stated); 422
CCn1c2c(-c3ccc(-c4cccs4)s3)cc(C(C)(C)C)cc2c2cc(C(C)(C)C)cc(-c3ccc(-c4cccs4)s3)c21; 360

====

# experiment_description: solvent given as SMILES
# condition_parameters: in CCCCCC
assay_metric: absorption maximum (nm)

CCC1=C(C)C2=C(c3c4ccccc4c(-c4ccccc4)c4ccccc34)c3c(C)c(CC)c(C)n3[B-](F)(F)[N+]2=C1C; 531
CC(C)(C)c1cc2ccc3cccc4c3c2c(c1)c1nc2c3cc(C(C)(C)C)cc5ccc6cccc(c(=O)n2c41)c6c53; 393
CC1=C(C(C)(C)C)C(C)=[N+]2C1=C(C)c1c(C)c(C(C)(C)C)c(C)n1[B-]2(F)F; 527.5
CC(C)(C)c1ccc(-c2nc3c4ccc(-c5cc6ccccc6c6ccccc56)cc4c4cc(-c5cc6ccccc6c6ccccc56)ccc4c3n2-c2ccc(C(C)(C)C)cc2)cc1; 325
CCC1(CC)c2cc(/C=C/c3cc(Br)c(/C=C/c4ccc5c(c4)C(CC)(CC)c4cc(N6c7ccccc7Sc7ccccc76)ccc4-5)cc3Br)ccc2-c2ccc(N3c4ccccc4Sc4ccccc43)cc21; 433.42

P. CC1(C)CCc2c(c3ccccc3c3nc4c5c(c6ccccc6c4nc23)OC(C)(C)CC5)O1
Q. CO
Which numeric absorption maximum is bigger, that of P or that of Q ? I would appreciate it if you answered with the label of your choice.
P
(P: 452.08 nm, Q: 177 nm)

P. CCc1c(C)c2n(c1C)[B-](F)(F)[N+]1=C(NCc3ccc(OC)cc3)C=CC1=C2C
Q. Cc1cc(O)c(C(C)C)cc1/N=C/c1ccc(O)cc1
Please compare: P and Q . Report which one has the smaller absorption maximum value. I would appreciate it if you answered with the label of your choice.
Q
